TARGET_OF_ASSAY: canine TRPM8 (Canis lupus familiaris)
Construct: expressed in transfected cells
Sequence (Q1A7N1 1-1104): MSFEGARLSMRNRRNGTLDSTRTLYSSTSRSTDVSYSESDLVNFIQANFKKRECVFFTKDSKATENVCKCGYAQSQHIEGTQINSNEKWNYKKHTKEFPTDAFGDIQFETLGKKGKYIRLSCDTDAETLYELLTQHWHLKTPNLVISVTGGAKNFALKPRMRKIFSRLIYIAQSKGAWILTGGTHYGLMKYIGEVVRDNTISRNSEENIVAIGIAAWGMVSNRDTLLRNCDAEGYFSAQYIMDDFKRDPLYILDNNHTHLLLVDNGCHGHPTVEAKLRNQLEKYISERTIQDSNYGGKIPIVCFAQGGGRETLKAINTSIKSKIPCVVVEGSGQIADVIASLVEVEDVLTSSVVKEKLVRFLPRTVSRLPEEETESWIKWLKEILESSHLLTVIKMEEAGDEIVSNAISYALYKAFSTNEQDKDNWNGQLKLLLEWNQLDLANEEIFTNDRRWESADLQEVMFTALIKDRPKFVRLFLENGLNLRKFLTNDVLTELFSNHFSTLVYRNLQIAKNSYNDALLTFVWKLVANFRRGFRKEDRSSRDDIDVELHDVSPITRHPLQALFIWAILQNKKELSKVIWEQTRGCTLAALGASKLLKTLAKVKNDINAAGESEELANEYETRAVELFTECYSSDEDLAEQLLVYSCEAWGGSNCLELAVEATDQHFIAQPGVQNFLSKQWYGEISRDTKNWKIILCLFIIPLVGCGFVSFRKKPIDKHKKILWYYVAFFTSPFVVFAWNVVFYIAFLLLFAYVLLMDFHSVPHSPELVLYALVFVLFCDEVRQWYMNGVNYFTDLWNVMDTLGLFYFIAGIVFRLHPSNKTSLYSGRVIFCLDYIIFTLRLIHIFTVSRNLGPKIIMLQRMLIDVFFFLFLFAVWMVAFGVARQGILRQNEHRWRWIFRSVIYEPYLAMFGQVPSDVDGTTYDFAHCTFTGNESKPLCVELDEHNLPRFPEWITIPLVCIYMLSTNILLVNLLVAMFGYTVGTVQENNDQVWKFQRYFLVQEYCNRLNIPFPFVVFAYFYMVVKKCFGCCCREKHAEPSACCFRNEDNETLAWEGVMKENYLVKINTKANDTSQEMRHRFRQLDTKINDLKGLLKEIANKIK
PROTOCOL_NOTES: In Vitro Canine TRPM8 Functional Assay (icilin-induced intracellular Ca2+ fluorescence, FLIPR/FDSS)
Assay type: cell-based
PROTOCOL_CONDITIONS: 0.2 μM test compound; icilin challenge; HEK293 cells stably expressing canine TRPM8
Structures can show the parent of a compound that is named as a salt.
READOUT_LABEL: inhibition at 0.2 µM (%)

Examples with answers:
Exam item: # lookup: canine TRPM8 (Canis lupus familiaris) inhibition at 0.2 µM, key = FC(F)(F)c1cccnc1-c1ccc2[nH]c(/C=C/C3CCOCC3)nc2c1 [Compound 62, hydrochloride]
Marked response: 92

Exam item: # lookup: canine TRPM8 (Canis lupus familiaris) inhibition at 0.2 µM, key = COc1ccc(F)cc1-c1ccc2[nH]c(C=CC3CC=C(F)CC3)nc2c1 (centres unmarked) [Compound 33, hydrochloride salt]
Marked response: 101

Exam item: # lookup: canine TRPM8 (Canis lupus familiaris) inhibition at 0.2 µM, key = CC1(c2ccccc2-c2ccc3[nH]c(C=CC4CCCCC4)nc3c2)OCCO1 [Compound 7]
Marked response: 103

Exam item: # lookup: canine TRPM8 (Canis lupus familiaris) inhibition at 0.2 µM, key = C(=CC1CCCCC1)c1nc2cc(-c3ccccc3)ccc2[nH]1 [Compound 2]
Marked response: 96

Exam item: # lookup: canine TRPM8 (Canis lupus familiaris) inhibition at 0.2 µM, key = FC(F)(F)c1ccccc1-c1ccc2[nH]c(/C=C/C3CCSCC3)nc2c1 [Compound 51]
Marked response: 95

Exam item: # lookup: canine TRPM8 (Canis lupus familiaris) inhibition at 0.2 µM, key = FC(F)(F)Oc1ccccc1-c1ccc2[nH]c(/C=C/C3CCCCC3)nc2c1 [Compound 1, hydrochloride salt]
Marked response: 93

[a] FC1(F)CCC(/C=C/c2nc3cc(-c4ccccc4C(F)(F)F)cc(C(F)(F)F)c3[nH]2)CC1 [Compound 47, hydrochloride salt]
[b] Oc1cccc(-c2ccc3[nH]c(C=CC4CCCCC4)nc3c2)c1 [Compound 5]
Exam item: # compare inhibition at 0.2 µM for a vs b ; return the one with the smaller value I would appreciate it if you answered with the label of your choice.
Marked response: b
(b: 18%, a: 99%)
